Test system: K562 CRISPRi cells
Assay: Perturb-seq pooled growth measurement (sgRNA counts, growth phenotype γ, relative activity)
Type: cell-based, human
Conditions: sequencing read counts; T0 = day two after transduction
With a cut-off of 7000, any Perturb-seq pooled growth sgRNA counts, T0 strictly below it is called TRUE; any Perturb-seq pooled growth sgRNA counts, T0 meeting it or above is called FALSE.

Before answering, review these 6 worked examples.
substance="HSPA9_−_137911079.23-P1P2_07: sgRNA targeting HSPA9, GGAGCTGCGGGATGCGGTGG, SEQ ID NO: 132 (listed as DNA, chemistry not fully specified)" group=TRUE
substance="non-targeting_00217: non-targeting negative control sgRNA, GTGAACTCAAAAATCCCGAC, SEQ ID NO: 165 (listed as DNA, chemistry not fully specified) [reference compound]" group=FALSE
substance="DUT_+_48624411.23-P1P2_07: sgRNA targeting DUT, GCGAGCGAGGAGCCCACCGG, SEQ ID NO: 113 (listed as DNA, chemistry not fully specified)" group=TRUE
substance="DUT_+_48624411.23-P1P2_08: sgRNA targeting DUT, GCGAGCGAGGAGGCCACCGG, SEQ ID NO: 112 (listed as DNA, chemistry not fully specified)" group=FALSE
substance="SEC61A1_−_127771295.23-P1_00: sgRNA targeting SEC61A1, GGCACTGACGTGTCTCTCGG, SEQ ID NO: 83 (listed as DNA, chemistry not fully specified)" group=FALSE
substance="COX11_+_53045977.23-P1P2_03: sgRNA targeting COX11, GGCTCTGTCGTCCTGGATGG, SEQ ID NO: 142 (listed as DNA, chemistry not fully specified)" group=FALSE

Turning to the following substance.
Consider EIF2S1_−_67827080.23-P1P2_01: sgRNA targeting EIF2S1, GAGCGAAACGCACGCTGAGG, SEQ ID NO: 139 (listed as DNA, chemistry not fully specified) . Does its Perturb-seq pooled growth sgRNA counts, T0 lie strictly below 7000?
TRUE

---

gamma_day5 by entry:
Test system: K562 CRISPRi cells
Test: Perturb-seq pooled growth measurement (sgRNA counts, growth phenotype γ, relative activity)
Format: cell-based, human
Settings: pooled growth phenotype γ of the Perturb-seq sgRNA, day 5, K562 CRISPRi cells

substance="GATA1_ −_48645022.23-P1P2_06 (guide GTGAGCTTGCGACATCCCCA; listed as DNA, chemistry not fully specified)" tgt="K562 CRISPRi cells" result=−0.5073
substance="RPS15_ −_1438413.23-P1P2_02 (guide GACCAAGGCGATCTCTTCTG; listed as DNA, chemistry not fully specified)" tgt="K562 CRISPRi cells" result=−0.4922
substance="SEC61A1_ −_127771295.23-P1_02 (guide GGCGCTGACGTGTCTCTCGG; listed as DNA, chemistry not fully specified)" tgt="K562 CRISPRi cells" result=−0.6451
substance="TUBB_ + _30688126.23-P1_00 (guide GCGGCAGGAAGGTTCTGAGA; listed as DNA, chemistry not fully specified)" tgt="K562 CRISPRi cells" result=−0.897
substance="GINS1_ −_25388381.23-P1P2_08 (guide GGACTAGAGCGAAAGGAGTG; listed as DNA, chemistry not fully specified)" tgt="K562 CRISPRi cells" result=−1.039

Kindly note the recorded gamma_day5 for GATA1 −_48645022.23-P1P2_12 (guide GTGAGCTTGCCACATCCGCA; listed as DNA, chemistry not fully specified) , which is −0.1084

---

System: K562 CRISPRi cells
Assay: Perturb-seq pooled growth measurement (sgRNA counts, growth phenotype γ, relative activity)
Assay type: cell-based, human
Details: sequencing read counts; 5 days of growth (day seven after transduction)
Excerpt: Finally, we sought to use intermediate-activity sgRNAs to explore relationships between expression levels of various genes and the resulting cellular phenotypes. […] In addition to the single-cell transcriptomes, we measured bulk growth phenotypes conferred by sgRNAs in these cells. […]
With a cut-off of 3000, any Perturb-seq pooled growth sgRNA counts, d5 strictly below it is called label 1; any Perturb-seq pooled growth sgRNA counts, d5 meeting it or above is called label 0.

Before answering, review these 4 worked examples.
substance="HSPA9_−_137911079.23-P1P2_07: sgRNA targeting HSPA9, GGAGCTGCGGGATGCGGTGG, SEQ ID NO: 132 (listed as DNA, chemistry not fully specified)" group="label 1"
substance="HSPE1_+_198365089.23-P1P2_00: sgRNA targeting HSPE1, GGAGACTCGCAGTCCGGCCC, SEQ ID NO: 9 (listed as DNA, chemistry not fully specified)" group="label 1"
substance="GNB2L1_+_180670873.23-P1P2_07: sgRNA targeting GNB2L1, GTGCAAGGCGGGGGCAGGAG, SEQ ID NO: 58 (listed as DNA, chemistry not fully specified)" group="label 0"
substance="HSPA9_−_137911079.23-P1P2_08: sgRNA targeting HSPA9, GGAGCTGCTCGATGCGGTGG, SEQ ID NO: 134 (listed as DNA, chemistry not fully specified)" group="label 1"

Turning to the following substance.
Consider non-targeting_00527: non-targeting negative control sgRNA, GTGGGAGCAGATCAAGACTC, SEQ ID NO: 168 (listed as DNA, chemistry not fully specified) [reference compound] . Does its Perturb-seq pooled growth sgRNA counts, d5 lie strictly below 3000?
label 0

---

Perturb-seq pooled growth sgRNA counts, d10 by entry:
Test system: K562 CRISPRi cells
Assay: Perturb-seq pooled growth measurement (sgRNA counts, growth phenotype γ, relative activity)
Format: cell-based, human
Conditions: sequencing read counts; 10 days of growth (day twelve after transduction)
Reply with the value as a number alone.

The following substances have reported results that may help.
substance="TUBB_+_30688126.23-P1_10: sgRNA targeting TUBB, GCGGCAGGAAGGTTCAGAGA, SEQ ID NO: 109 (listed as DNA, chemistry not fully specified)" recorded_number=12737
substance="POLR1D_+_28196016.23-P1_07: sgRNA targeting POLR1D, GGGAAGCAAGGAGCGACCGA, SEQ ID NO: 77 (listed as DNA, chemistry not fully specified)" recorded_number=16285
substance="non-targeting_00089: non-targeting negative control sgRNA, GGGGTGAGGGTCCAATTCGG, SEQ ID NO: 164 (listed as DNA, chemistry not fully specified) [reference compound]" recorded_number=44919
substance="GINS1_−_25388381.23-P1P2_06: sgRNA targeting GINS1, GGACTAGAACGGAAGGAGTG, SEQ ID NO: 95 (listed as DNA, chemistry not fully specified)" recorded_number=1219

// next entry
Kindly note the recorded Perturb-seq pooled growth sgRNA counts, d10 for CAD_+_27440280.23-P1P2_03: sgRNA targeting CAD, GGCTGGTGAGAAGCCGGGCG, SEQ ID NO: 102 (listed as DNA, chemistry not fully specified) , which is 907
